B1: library; numbered along this chain (parent)
chain: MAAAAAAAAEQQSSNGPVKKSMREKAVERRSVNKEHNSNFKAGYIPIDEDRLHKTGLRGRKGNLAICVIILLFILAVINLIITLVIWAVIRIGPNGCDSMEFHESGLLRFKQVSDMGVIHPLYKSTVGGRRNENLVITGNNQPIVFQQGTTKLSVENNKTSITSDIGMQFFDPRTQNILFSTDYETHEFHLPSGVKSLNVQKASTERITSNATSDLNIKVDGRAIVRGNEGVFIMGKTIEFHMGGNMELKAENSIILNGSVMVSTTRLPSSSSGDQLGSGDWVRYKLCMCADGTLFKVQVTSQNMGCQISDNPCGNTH

variants of: B1; test: SGCB cell-surface expression functional score (HA stain, bin4 vs bin1, normalised to synonymous) (log10 ratio); higher = more cell-surface SGCB (functional)
Range-based classes on measured SGCB cell-surface expression functional score (log10): class 0: < 0.03; class 1: ≥ 0.03 and < 0.3; class 2: ≥ 0.3

Completed entries (count: 2):
| mutation_key | group_label |
| --- | --- |
| I70A | class 2 |
| L71I | class 0 |

QUERY: Exam item: assign L84S to the correct category.
RESULT: class 1

QUERY: Band of S310Q ?
RESULT: class 1

QUERY: Tag the class for Q12G
RESULT: class 1

QUERY: Input G278H ; output its category
RESULT: class 0

QUERY: Any idea which band S270T is in?
RESULT: class 2

QUERY: Consider V77G . To which SGCB cell-surface expression functional score (log10) class does it belong?
RESULT: class 0

QUERY: Band for H103D ?
RESULT: class 0

QUERY: # bin lookup: classify K19E by its SGCB cell-surface expression functional score (log10)
RESULT: class 2

QUERY: Just checking, what class would you give G293T here?
RESULT: class 1

QUERY: Category of K61Y :
RESULT: class 2
